System: CAKI-1
Assay: NCI tumour cell line growth inhibition, 48 h
The source made the active and inactive calls. No stated cut-off is given here; in the data, active = GI50 up to about 1.1 µM and inactive = higher.
Classes used: 1 (yes) (active), 0 (no) (inactive)

{"columns": ["compound", "category_label"],
 "data": [
  ["O=C(NCCNCCO)N/N=C/c1ccc([N+](=O)[O-])cc1", "0 (no)"],
  ["COc1ccc2nc3n(c2c1)C(c1c(F)cccc1F)SC3 (stereo not drawn)", "0 (no)"],
  ["O=Cc1ccc(-c2cc(C=O)c(-c3cccs3)[nH]2)s1", "0 (no)"],
  ["Cc1oc2c(c1C(=O)c1ccccc1)C(=O)c1ccccc1C2=O", "0 (no)"],
  ["CC(=O)c1cc(C)n2c1CS[C@@H]2c1ccccc1", "0 (no)"],
  ["CCNc1cc2oc(=O)cc(C(F)(F)F)c2cc1C", "0 (no)"],
  ["COc1cc2c(cc1OCCCNC(=O)c1cc3ccccc3[nH]1)N=C[C@@H]1CCCN1C2=O", "1 (yes)"],
  ["CCc1n[nH]c(=O)n1NC(=O)CCCC(=O)O", "0 (no)"],
  ["C[n+]1cn(C2=C([N-]S(=O)(=O)c3ccccc3)C(=O)c3ccccc3C2=O)c2ccccc21", "0 (no)"],
  ["CC1(C)OCC2OC3(c4nc(C#N)c(N)o4)OC(C)(C)OC3C2O1 (stereo not drawn)", "0 (no)"],
  ["C=CCN1C(=O)/C(=C/c2ccc(Cl)cc2)N=C1SC/C=C/C", "0 (no)"],
  ["COc1ccc(C(=O)N2CCN(c3ccc4c(c3)OCC(=O)N4)CC2)cc1", "0 (no)"],
  ["N#CC(C(=O)c1ccccc1F)c1nc2cc(C(F)(F)F)ccc2s1 (stereo not drawn)", "0 (no)"],
  ["NC(=S)N/N=C(\\CC1OC(=O)c2ccccc21)c1ccc(Cl)cc1 (stereo not drawn)", "0 (no)"],
  ["O=S(=O)(c1ccccc1)c1nccs1", "0 (no)"],
  ["CC(C)(C)c1cc(C(P(=O)(c2ccccc2)c2ccccc2)P(=O)(c2ccccc2)c2ccccc2)cc(C(C)(C)C)c1O", "0 (no)"],
  ["CCOC(=O)NC(=S)c1ccc(O)c2ccccc12", "0 (no)"],
  ["CCCN(CCCC(NC(C)=O)C(=O)NCc1ccccc1)C(=O)NC (stereo not drawn)", "0 (no)"],
  ["Cn1c(=O)c2nc(CCS)[nH]c2n(C)c1=O", "0 (no)"],
  ["C/C(=C1/N=C(c2ccccc2)OC1=O)c1ccc(C)cc1", "0 (no)"],
  ["CC(=O)N(O)Cc1ccccc1", "0 (no)"],
  ["Cc1cnc2c(c1)C(=O)N(c1ccc([N+](=O)[O-])cc1)S2(=O)=O", "0 (no)"],
  ["Cn1c(-c2ccccc2)c/c(=N\\NS(C)(=O)=O)c2cc(S(=O)(=O)O)ccc21", "0 (no)"]
]}

----------
System: HCC 2998
Test: NCI tumour cell line growth inhibition, 48 h
Activity calls are given as the source filed them. Cut-off read from the data, not from the text of the source: active = GI50 up to about 1.1 µM and inactive = higher.
Reported GI50 by item:
quantity: GI50

{"columns": ["compound", "reported_result"],
 "data": [
  ["O=C(/C=C/c1ccsc1)c1cccs1", "19.7 µM (inactive)"],
  ["COc1cc(-c2ccc(/N=N/c3ccc4c(S(=O)(=O)O)cc(S(=O)(=O)O)c(N)c4c3O)c(OC)c2)ccc1/N=N/c1ccc2c(S(=O)(=O)O)cc(S(=O)(=O)O)c(N)c2c1O", "> 100 µM (inactive)"],
  ["CCCCCCCC(=O)OC(COC(=O)Cc1ccccc1)COC(=O)C(C)(C)C (centres undefined)", "> 100 µM (inactive)"],
  ["CC(C)(O)/C=C\\P(C)(=O)c1ccccc1 (centres undefined)", "> 100 µM (inactive)"]
]}

Recorded values, source ChEMBL document CHEMBL1201862.
